Test Summary: Pharmacokinetic study
Type: in vivo, SD rats
Applied Conditions: male, SD, rat, plasma, po, 10 mg/kg, p.o. 10 mg/kg, 2.00 h; read-out: Concentration in rat plasma, individual animals 1-3
Parameter Measured: concentration at 2 h (ng/mL)
Field: numeric (ng/mL). Do not append units.

Prompt line: Indicate the recorded concentration at 2 h value for this compound: `C[C@H](Oc1ccc(-c2nc3nc(C4=CCN(C(=O)OC(C)(C)C)CC4)ccc3[nH]2)cc1)c1ccccc1`
Response line: 5.7

----------
Test Summary: Pharmacokinetic study
Assay type: in vivo, SD rats
Applied Conditions: male, SD, rat, plasma, iv, 3 mg/kg, rat, i.v. 3 mg/kg, individual animals 4-6; read-out: MRTINF_obs
Parameter Measured: MRT inf (h)
Field: numeric (h). Do not append units.

Prompt line: Indicate the recorded MRT inf value for this compound: C[C@H](Oc1ccc(-c2nc3nc(C4=CCN(C(=O)OC(C)(C)C)CC4)ccc3[nH]2)cc1)c1ccccc1 [W2014-S]
Response line: 5.79

Values were extracted from paper PMC7738869.
